target-or-system: human TLR7 (Homo sapiens, UniProt Q9NYK1)
Sequence (Q9NYK1 27-1049): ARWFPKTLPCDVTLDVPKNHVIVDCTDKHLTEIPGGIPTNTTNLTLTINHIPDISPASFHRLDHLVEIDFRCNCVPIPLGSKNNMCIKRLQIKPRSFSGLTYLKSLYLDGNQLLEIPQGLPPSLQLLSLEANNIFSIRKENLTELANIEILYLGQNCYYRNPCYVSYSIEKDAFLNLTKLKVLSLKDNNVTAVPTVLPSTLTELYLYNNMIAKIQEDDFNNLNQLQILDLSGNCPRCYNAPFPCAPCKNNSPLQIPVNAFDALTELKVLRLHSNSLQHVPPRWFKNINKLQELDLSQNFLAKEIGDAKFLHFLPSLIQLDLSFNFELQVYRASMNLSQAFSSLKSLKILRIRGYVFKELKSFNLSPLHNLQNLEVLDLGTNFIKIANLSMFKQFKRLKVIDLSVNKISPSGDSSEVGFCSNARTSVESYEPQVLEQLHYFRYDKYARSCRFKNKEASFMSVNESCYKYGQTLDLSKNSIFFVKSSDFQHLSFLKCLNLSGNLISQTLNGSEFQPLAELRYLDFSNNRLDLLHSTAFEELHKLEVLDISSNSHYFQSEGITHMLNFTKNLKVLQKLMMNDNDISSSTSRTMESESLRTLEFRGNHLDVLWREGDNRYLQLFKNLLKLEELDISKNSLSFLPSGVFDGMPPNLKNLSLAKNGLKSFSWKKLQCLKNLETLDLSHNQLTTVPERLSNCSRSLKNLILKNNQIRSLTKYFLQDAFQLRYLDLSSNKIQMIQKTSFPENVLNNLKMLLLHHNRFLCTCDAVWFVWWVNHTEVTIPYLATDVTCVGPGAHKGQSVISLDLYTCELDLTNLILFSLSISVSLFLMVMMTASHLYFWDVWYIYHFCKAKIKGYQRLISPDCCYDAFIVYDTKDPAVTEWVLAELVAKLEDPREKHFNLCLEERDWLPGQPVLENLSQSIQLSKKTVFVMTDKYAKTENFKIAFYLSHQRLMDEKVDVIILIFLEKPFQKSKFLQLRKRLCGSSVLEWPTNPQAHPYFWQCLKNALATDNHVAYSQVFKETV
assay-name: HEK Reporter Assay, HEK293 NFKB reporter cells expressing human TLR7
details: read-out: HEK293 hTLR7 EC50
pEC50: −log10 of the molar value.

| smiles-repr | pEC50 |
| --- | --- |
| CCCN(OCCNC(=O)OC(C)C)C(=O)C1=Cc2ccc(-c3cncc(S(=O)(=O)N4CC(CN)C4)c3)cc2N=C(N)C1 | 6.16 |
| CCCN(OCC)C(=O)C1=Cc2ccc(-c3cnc(N4CCN(C(=O)OC(C)(C)C)CC4)nc3)cc2N=C(N)C1 | 5.49 |
| CCCN(CCCOC(=O)NC1CCC1)C(=O)C1=Cc2ccc(-c3cnc(CN)nc3)cc2N=C(N)C1 | 6.08 |
| CCCN(OCCNC(=O)OC1CCC1)C(=O)C1=Cc2ccc(-c3cncc(S(=O)(=O)N4CC(CN)C4)c3)cc2N=C(N)C1 | 6.49 |
| CCCN(CCCNC(=O)OC1CCC1)C(=O)C1=Cc2ccc(-c3cnc(CN)nc3)cc2N=C(N)C1 | 6.62 |
| CCCN(OCC)C(=O)C1=Cc2ccc(-c3cnc(C(=O)N4CCC[C@H]4C(=O)OC)nc3)cc2N=C(N)C1 | 6.80 |

---

target-or-system: human TLR7 (Homo sapiens)
assay-name: HEK Reporter Assay, HEK293 NFKB reporter cells expressing human TLR7
details: read-out: HEK293 hTLR7 EC50
pEC50: −log10 of the molar value.
property: pEC50

| compound | target-or-system | property | test-value |
| --- | --- | --- | --- |
| CCCN(CCCNC(=O)OC1CCC1)C(=O)C1=Cc2ccc(-c3cncc(S(=O)(=O)N4CC(CN)C4)c3)cc2N=C(N)C1 [HxBz-32] | human TLR7 (Homo sapiens) | pEC50 | 5.89 |
| CCCN(OCC)C(=O)C1=Cc2ccc(-c3cnc(C#N)nc3)cc2N=C(N)C1 [HxBz-1] | human TLR7 (Homo sapiens) | pEC50 | 5.60 |
| CCCN(OCC)C(=O)C1=Cc2ccc(-c3cccnn3)cc2N=C(N)C1 [HxBz-2] | human TLR7 (Homo sapiens) | pEC50 | 5.65 |
| CCCN(OCc1ccn[nH]1)C(=O)C1=Cc2ccc(-c3cnc(CN)nc3)cc2N=C(N)C1 [HxBz-41] | human TLR7 (Homo sapiens) | pEC50 | 5.41 |
